// provenance: patent US20150218281A1

System: T1, biotinylated hOX40L (R&D Systems, biotinylated in house) (human, UniProt P23510 51-183, biotinylated with Sulfo-NHS-LC-Biotin, sites not stated)
T1 construct: same bought protein as m10, biotinylated; also called biotinylated OX40L
T1 sequence: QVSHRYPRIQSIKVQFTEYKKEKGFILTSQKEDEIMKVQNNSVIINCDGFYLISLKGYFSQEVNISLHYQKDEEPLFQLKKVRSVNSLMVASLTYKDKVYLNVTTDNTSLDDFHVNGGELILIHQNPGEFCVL
Method description: hOX40L/hOX40 AlphaScreen, assay 2, native
Readout: IC50 (nM)

OX40L15B07 (VHH, monovalent Nanobody from E. coli; not shown: C-terminal c-myc and His6 tag) VHH: EVQLVESGGGLVQAGGSLRLSCAASRSIGRLDRMGWYRHRTGEPRELVATITGGSSINYGDFVKGRFTISIDNAKNTVYLQMNNLKPEDTAVYYCNFNKYVTSRDTWGQGTQVTVSS :: 0.066

1. OX40L048 (VHH, not shown: small tags and cut ends) VHH: DVQLVESGGGLVQPGGSLRLSCAASRSIGRLDRMGWYRHRTGEPRELVATITGGSSINYADFVKGRFTISRDNSKNTVYLQMNSLRPEDTAVYYCNFNKYVTSRDTWGQGTLVTVSS
2. OX40L043 (VHH, not shown: small tags and cut ends) VHH: DVQLVESGGGLVQPGGSLRLSCAASRSIGRLDRMGWYRHRTGKPRELVATITGGSSINYGDFVKGRFTISRDNSKNTVYLQMNSLRPEDTAVYYCNFNKYVTSRDTWGQGTLVTVSS
Prompt: Of 1 and 2 , whose reported IC50 is numerically smaller? Indicate your choice by writing its label.
Response: 2
